The measured values listed here are drawn from the RNAGym collection of RNA variant scans (doi:10.1093/molbev/msab373).

# reverse-splicing fitness listing for each entry below
B1: Azoarcus group I ribozyme (parent)
chain: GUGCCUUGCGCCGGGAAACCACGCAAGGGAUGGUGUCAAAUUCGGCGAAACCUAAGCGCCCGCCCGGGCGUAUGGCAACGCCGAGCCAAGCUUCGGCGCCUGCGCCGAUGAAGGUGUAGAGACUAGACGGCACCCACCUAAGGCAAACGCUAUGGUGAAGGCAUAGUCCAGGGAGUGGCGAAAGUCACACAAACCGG

Variants of: B1
Assay: reverse-splicing fitness (ratio to wild type); higher = more active; in vitro selection; Mg2+ level not given

{"variant": "C82A A111U A120G A145G C150U C169U U176G", "reverse-splicing fitness": 0.00618}
{"variant": "C82A A120U C150U C169U U176A", "reverse-splicing fitness": 0.00458}
{"variant": "A111G A120U A145G C150G C169G U176G", "reverse-splicing fitness": 0.00311}
{"variant": "A111G C150U C169U", "reverse-splicing fitness": 0.112}
